Entry source: PubChem BioAssay AID488818

system: S. cerevisiae s288c autofluorescence, flow cytometry MCF, 3 h; assay: compound autofluorescence in parental yeast s288c, SAR follow-up, artefact control for yeast TOR pathway GFP screen, cherry pick 3, multiplex, flow cytometry (AID 488818); details: at 33.3 µM; active compounds read high
quantity-name: fluorescence change

Sample answers from the record:
>  <compound>
Cc1ccc(NN2C(=O)C=C(c3ccccc3)C2=O)cc1

>  <system-under-test>
S. cerevisiae s288c autofluorescence, flow cytometry MCF, 3 h

>  <fluorescence change>
0.65

$$$$
>  <compound>
COc1cccc2c(Cl)c(CCCl)c(C)nc12

>  <system-under-test>
S. cerevisiae s288c autofluorescence, flow cytometry MCF, 3 h

>  <fluorescence change>
0.24

$$$$
>  <compound>
COc1ccccc1-c1cc(C(F)(F)F)nc(S(=O)(=O)CCCC(=O)NC(C)C)n1

>  <system-under-test>
S. cerevisiae s288c autofluorescence, flow cytometry MCF, 3 h

>  <fluorescence change>
0.18

$$$$

(a) O=C(O)c1ccc2cccnc2c1O
(b) CCC(C)Nc1nc(N)c([N+](=O)[O-])c(Nc2cc(OC)ccc2OC)n1 (stereo not given)
Task for the reader: decide whether a or b has the larger fluorescence change. Please reply using the label of the selected record.
b
(b: 0.8, a: 0.12)
